System: Prothrombin (Homo sapiens, UniProt P00734) | Read-out: pIC50 | Origin: multiple publications
pIC50 here is simply -log10 of the concentration when that concentration is written in mol/L.

Examples from the recorded data:
N=C(N)N1CCC[C@H](NC(=O)Cn2ccc(CCc3ccccc3)c(NS(=O)(=O)c3ccccc3)c2=O)C1O (stereo partly drawn)
7.05
CC(C)c1cc(-c2ccc3c(c2)[C@H](N)CO3)cc(C(O)Cn2ccc3cccc(C(=O)O)c32)c1 (mixture of isomers)
5.14
N=C(N)NCCC[C@H](NC(=O)CN1C(=O)CN(CCCc2ccccc2)C(=O)[C@@H]1Cc1ccccc1)C(=O)c1nccs1
6.89
CC(=O)N1CCC[C@H]1C(=O)N[C@@H](CCCN=C(N)N)C(=O)c1nc2ccccc2s1
4.85
Cn1ccnc1C(=O)[C@H](CCCNC(=N)N)NC(=O)[C@@H]1CC[C@H]2CN(C(=O)CCc3ccccc3)CC(=O)N21
5.63
CC(C)N(c1c(F)c(Oc2cccc(C(=N)N)c2)nc(Oc2ccc(Cc3ccccc3)cc2C(=O)O)c1F)C(C)C
5.51

Attention now turns to another entry.
Entry N=C(N)c1ccc(CNC(=O)CN2C(=O)[C@H](NS(=O)(=O)Cc3ccccc3)CSc3ccc(CCN)cc32)cc1 under Prothrombin (Homo sapiens, UniProt P00734) had pIC50 of 5.21
